Values were extracted from the METLIN SMRT retention time set (Domingo-Almenara et al. 2019).

Experiment: gradient 5% acetonitrile 3 min, to 50% in 2 min, to 85% in 15 min, held 3 min, 100 µL/min
Conditions: column: Zorbax Extend-C18 2.1 x 50 mm; eluents: water / acetonitrile, 0.1% formic acid
Each record is given true if its reported RP-LC retention time is strictly below 900 s. Records at or above 900 s are given false.

Field: example entries. Status: answers known.
>  <smiles str>
CCn1c(C)c(CN2CCC(C(=O)NCc3ccccc3C)CC2)c2ccccc21

>  <label>
true

$$$$
>  <smiles str>
CCc1nc2cc(N3CCC(C(=O)NCc4ccc5c(c4)OCO5)CC3)cnc2nc1CC

>  <label>
true

$$$$
>  <smiles str>
COc1ccc(C)cc1NC(=O)Cn1nc2c(Oc3ccc(Cl)cc3)nccn2c1=O

>  <label>
false

$$$$

Consider now this further molecule.
*Q* Just wondering, is RP-LC retention time of `CCN1C(=O)COc2ccc(-c3csc(NC(=O)c4ccc(Cl)cc4)n3)cc21` below 900 s?
*A* false

* * *

Assay: gradient 5% acetonitrile 3 min, to 50% in 2 min, to 85% in 15 min, held 3 min, 100 µL/min
Conditions: column: Zorbax Extend-C18 2.1 x 50 mm; eluents: water / acetonitrile, 0.1% formic acid
Binary classification by RP-LC retention time, with 900 s as an inclusive lower bound for T; all other cases are F.

>  <compound>
O=C(C1=NN(CCc2ccccc2)c2ccccc2S1(=O)=O)N1CCCC1

>  <label>
F

$$$$
>  <compound>
O=C(Cn1ccn2nc(-c3ccc(F)cc3)c(CO)c2c1=O)N1CCc2ccccc21

>  <label>
F

$$$$

*Q* Tell me whether RP-LC retention time is at least 900 s here: `O=C(Cn1ccc2ccn(Cc3cccnc3)c2c1=O)N1CCOCC1`
*A* F

*Q* Tell me whether RP-LC retention time is at least 900 s here: Cc1ccc(NC(=O)C2CCCN2S(=O)(=O)c2cc3c(cc2C)NC(=O)CO3)cc1F (stereo not drawn)
*A* F

*Q* Tell me whether RP-LC retention time is at least 900 s here: `CCc1ccc(-c2noc(Cn3nc(-c4ccc5c(c4)OCO5)ccc3=O)n2)cc1`
*A* T

* * *

Experiment: gradient 5% acetonitrile 3 min, to 50% in 2 min, to 85% in 15 min, held 3 min, 100 µL/min
Details: column: Zorbax Extend-C18 2.1 x 50 mm; eluents: water / acetonitrile, 0.1% formic acid
endpoint: RP-LC retention time (s)
Expressed in s, but write only the number.

Example entries begin here.
>  <molecule>
CC(NC(=O)Cn1cc(C#N)c2ccccc21)c1ccc2c(c1)OCCCO2 (centres undefined)

>  <RP-LC retention time / s>
881

$$$$
>  <molecule>
O=C(NC1CN2CCC1CC2)c1cc2ccoc2cn1 (centres undefined)

>  <RP-LC retention time / s>
620

$$$$
>  <molecule>
O=C(O)c1cccnc1NCc1cccc(F)c1

>  <RP-LC retention time / s>
655

$$$$

*Q* Endpoint output: RP-LC retention time of `CSc1ccc(CCNC(=O)c2nnc(-c3ccc(S(=O)(=O)N4CCCC4)cc3)o2)cc1` . Value?
*A* 982

* * *

Test: gradient 5% acetonitrile 3 min, to 50% in 2 min, to 85% in 15 min, held 3 min, 100 µL/min
Conditions: column: Zorbax Extend-C18 2.1 x 50 mm; eluents: water / acetonitrile, 0.1% formic acid
Binary classification by RP-LC retention time, with 900 s as an inclusive lower bound for fulfilled; all other cases are not fulfilled.

>  <compound>
CCC(C)NC(=O)Cn1nc2cc(C)nc(-c3ccc(C(F)(F)F)cc3)n2c1=O (stereo not given)

>  <label>
not fulfilled

$$$$
>  <compound>
Cc1ccc(-c2cc(C(=O)NCCCN3CCc4ccccc4C3)c(C)[nH]2)cc1C

>  <label>
not fulfilled

$$$$
>  <compound>
N#Cc1ccc(C(=O)Nc2cccnc2N2CCCC2)cc1

>  <label>
not fulfilled

$$$$
>  <compound>
O=C1[C@H]2CN(Cc3ccc(Cl)c(F)c3)C[C@H]2C(=O)N1Cc1ccc2c(c1)OCO2

>  <label>
fulfilled

$$$$
>  <compound>
CCOc1cc2c(cc1OCC)C(c1ccc(OC)c(OC)c1OC)CC(=O)N2 (stereo not given)

>  <label>
not fulfilled

$$$$

*Q* Tell me whether RP-LC retention time is at least 900 s here: `COC(=O)c1ccc2c(=O)n(-c3cccc(F)c3)c(N3CCCCC3)nc2c1`
*A* fulfilled

*Q* Tell me whether RP-LC retention time is at least 900 s here: `CSc1ccccc1NC(=O)Cn1cnc(-c2cccs2)cc1=O`
*A* not fulfilled

*Q* Tell me whether RP-LC retention time is at least 900 s here: `O=C(c1ccccc1)N1C[C@H]2CNC(=O)[C@]23CCCC[C@@H]13`
*A* not fulfilled

*Q* Tell me whether RP-LC retention time is at least 900 s here: `O=C(NCc1noc(C2CCCC2)n1)C1CCCCC1`
*A* not fulfilled

*Q* Tell me whether RP-LC retention time is at least 900 s here: `Cc1nc(C)c(C(=O)Nc2ccccc2NC(=O)c2ccccn2)s1`
*A* not fulfilled

*Q* Tell me whether RP-LC retention time is at least 900 s here: `COCCCNC(=O)c1ccc2c(c1)CCCN2S(C)(=O)=O`
*A* not fulfilled

*Q* Tell me whether RP-LC retention time is at least 900 s here: COCCNC(=O)C1(CCO)CCN(Cc2ccccc2)C1 (stereo not given)
*A* not fulfilled

*Q* Tell me whether RP-LC retention time is at least 900 s here: CC(=O)NCCc1csc(C2CCCN(C(=O)C3(c4ccccc4)CC3)C2)n1 (stereo not given)
*A* not fulfilled

*Q* Tell me whether RP-LC retention time is at least 900 s here: `CCc1ccc(S(=O)(=O)N2CCC(c3noc(-c4cccc(OC)c4)n3)CC2)cc1`
*A* fulfilled

*Q* Tell me whether RP-LC retention time is at least 900 s here: `CCCCCn1c(=O)c2ccccc2n(Cc2nc(-c3ccc(F)c(Cl)c3)no2)c1=O`
*A* fulfilled

*Q* Tell me whether RP-LC retention time is at least 900 s here: `CCCn1c(-c2cccc(C(=O)NCc3c(C)cc(C)cc3C)c2)nc2cccnc21`
*A* fulfilled

*Q* Tell me whether RP-LC retention time is at least 900 s here: `Cc1ccccc1NC(=O)Nc1ccc2c(c1)CCN2S(=O)(=O)c1ccccc1`
*A* fulfilled

*Q* Tell me whether RP-LC retention time is at least 900 s here: `CCN1c2ccc(F)cc2C(=O)NC12CCN(C(=O)Cc1ccccc1C)CC2`
*A* not fulfilled

*Q* Tell me whether RP-LC retention time is at least 900 s here: `Cc1ccc(N2C=C(C(=O)N3CCC(C)CC3)S(=O)(=O)c3ccccc32)cc1F`
*A* fulfilled

*Q* Tell me whether RP-LC retention time is at least 900 s here: `O=C(NCC1CC1)c1ccc2nc(-c3ccccc3)cn2c1`
*A* not fulfilled

*Q* Tell me whether RP-LC retention time is at least 900 s here: `Cc1sc(C)c(S(=O)(=O)Nc2cccc(Cl)c2)c1-c1cc(C(F)(F)F)on1`
*A* fulfilled

*Q* Tell me whether RP-LC retention time is at least 900 s here: `CCCSCCCNc1nc(-c2nnc(-c3ccc(C)cc3)o2)nc2ccccc12`
*A* fulfilled

*Q* Tell me whether RP-LC retention time is at least 900 s here: `O=C(COc1ccc(Cl)cc1)Nc1nnc(Cc2cccs2)o1`
*A* not fulfilled
